# Test system: NCI-H522 lung
# ASSAY: NCI-60 one-dose screen, 48 h (100 = growth as untreated, 0 = no growth, -100 = all killed)
# CONDITION_SUMMARY: 10 µM unless noted
This is part of a sample that, as a whole, favours compounds with a hit. Of some 83,000 tested, about 20% had one in any assay.
Recorded growth values for a group of compounds are listed next.
Write it as a number; the unit % goes unstated.

Reference set, count: 5
>>> df
                                   compound  assay_value
0  COc1cc(C2CC(c3ccc(Nc4nc(NCCO)nc(NCCO)n4)cc3)=NN2c2cc(Cl)cc(Cl)c2)cc(OC)c1OC (stereo not drawn)         25.1
1  CC(=O)O[C@@H]1C[C@]2(C)[C@H]3[C@H](O)C[C@@H]4C5=CC(C)(C)CC[C@]5(C)CC[C@@]4(C)[C@]3(C)CC[C@H]2C(C)(C)[C@H]1O          103
2  CCOC(=O)C1CCN(S(=O)(=O)/N=C2/NC(=O)NC2=C(Cl)Cl)CC1        -69.4
3  CC1(C)[C@@H](O)CC[C@]2(C)[C@H]3CC[C@@H]4[C@H]5[C@H](c6cn(-c7ccccc7)nn6)CC[C@]5(CO)CC[C@@]4(C)[C@]3(C)CC[C@@H]12         69.4
4  O=C(/C(=C/c1ccc([N+](=O)[O-])cc1)SCc1ccccc1)c1ccc(Cl)cc1         41.4

Query: Field request: growth | item: COc1ccc(/C=C(/C(=O)N2CCN(Cc3ccccc3)CC2)c2cc(OC)c(OC)c(OC)c2)cc1O
Result: 44.8

Query: Field request: growth | item: NC(=O)C(O)(c1ccccc1)c1ccccc1
Result: 84.2

Query: Field request: growth | item: CC(C)(C#N)c1cc(F)cc(C(=O)Nc2cc(Nc3ncccc3-c3ncnc4nc[nH]c34)ccc2F)c1
Result: 7.73

====

# Tested on: M14 melanoma
# ASSAY: NCI-60 one-dose screen, 48 h
# CONDITION_SUMMARY: 10 µM unless noted
About 83,000 compounds went through this panel and 20% of them were active in at least one assay; those are over-represented in the sample as a whole. The source made the active and inactive calls. How the source made its calls: active means growth percent below 10; inactive means the rest.
Choose the fitting class; nothing outside active, inactive is accepted.

Consider the following illustrative entries.
MOLECULE	DISCRETE_LABEL
C#C[C@@]1(O)[C@@H](CO)O[C@@H](n2cc(Cl)c3c(N)ncnc32)[C@@H]1O	active
C=C1C(=O)O[C@H]2[C@H]1CC/C(COC(=O)c1cccnc1N)=C\CC[C@@]1(C)O[C@@H]21	inactive
COc1ccc2c(c1)OC13Oc4cc(OC)ccc4C=C1CCCCC3=C2	inactive

Query: Hey, what did the test say about CNC(=O)c1cc(Oc2ccc3c(c2)sc2nc(-c4ccc(NC(C)=O)cc4)cn23)ccn1 ?
Result: inactive

Query: Hey, what did the test say about COc1ccccc1-c1ccc2nc(NC(=O)Nc3cc(C(F)(F)F)cc(C(F)(F)F)c3)sc2c1 ?
Result: inactive

====

# Tested on: MOLT-4 leukemia
# ASSAY: NCI-60 one-dose screen, 48 h (100 = growth as untreated, 0 = no growth, -100 = all killed)
# CONDITION_SUMMARY: 10 µM unless noted
This is part of a sample that, as a whole, favours compounds with a hit. Of some 83,000 tested, about 20% had one in any assay.
Recorded growth values for a group of compounds are listed next.
Write it as a number; the unit % goes unstated.

Reference set, count: 4
>>> print(df.to_string())
                                   compound  measured_parameter  measurement_units  assay_value
0  O=C(Nc1cc(Br)ccn1)c1cc2cc(Nc3nc(-c4ccccc4)nc4ccccc34)ccc2oc1=O              growth                  %          100
1  O=C(Nc1cc(Nc2ncccc2-c2ncnc3nc[nH]c23)ccc1F)c1cc(C(F)(F)F)cc(C(F)(F)F)c1              growth                  %        -33.6
2  CCCCCCCCCCCCCC1=NCC[N+]1(CCO)Cc1ccccc1 (stereo not drawn)              growth                  %        -58.1
3  C=C(C)[C@@H]1CC[C@]2(C(=O)NCCCO)CC[C@]3(C)[C@H](CC[C@@H]4[C@@]5(C)CCCNC(C)(C)[C@@H]5CC[C@]43C)[C@@H]12              growth                  %         30.5

Query: Field request: growth | item: O=C(NCc1ccccc1)c1ccc2c(c1)NC(=O)[C@@H]1CCCN21
Result: 113

Query: Field request: growth | item: COc1ccc2oc(=O)cc(-c3c(C#N)c(N)n4nc(N)c(C#N)c4c3C#N)c2c1
Result: 86

Query: Field request: growth | item: CS(=O)(=O)O[C@@H]1C(=O)N(c2cc3c4ccccc4ccc3c3ccccc23)[C@H]1c1ccc(F)cn1
Result: 24.3

Query: Field request: growth | item: COc1ccc(Nc2nc(SCC(C)C)nc(-c3ccc(F)cc3)c2C#N)cc1
Result: 57.2

Query: Field request: growth | item: Nc1c(C(=O)Nc2ccccn2)sc2nc3c(cc12)CCCC3
Result: 29.8
